Data origin: paper PMC11363325

- PROCEDURE_DETAILS: Stability of OSC-GCDIs and GOC release in BALB/c serum
- Format: in vitro ADME
- MEASUREMENT_CONDITIONS: mouse; BALB/c serum, 200 μM prodrug, 37 °C; read-out: T1/2
For each record, write down the corresponding half-life at 200 μM.
One number for each entry, in min.

Sample answers from the record:
CCCCC1CC(=O)N(C(=N[C@H]2CC(C(=O)O)=C[C@@H](OC(CC)CC)[C@@H]2NC(C)=O)N2C(=O)CC(CCCC)C2=O)C1=O (stereo partly shown) [OSC-GCDI(B)]    17.1
CCC(CC)O[C@@H]1C=C(C(=O)O)C[C@H](N=C(N2C(=O)CC(C)(C)C2=O)N2C(=O)CC(C)(C)C2=O)[C@H]1NC(C)=O [OSC-GCDI(D)]    158
CCC(CC)O[C@@H]1C=C(C(=O)O)C[C@H](N=C(N2C(=O)[C@H]3CCCC[C@H]3C2=O)N2C(=O)[C@H]3CCCC[C@H]3C2=O)[C@H]1NC(C)=O [OSC-GCDI(C)]    23.8

What the record says about CCC(CC)O[C@@H]1C=C(C(=O)O)C[C@H](N=C(N2C(=O)c3ccccc3C2=O)N2C(=O)c3ccccc3C2=O)[C@H]1NC(C)=O [OSC-GCDI(P)] : half-life at 200 μM is 1.3

---

- PROCEDURE_DETAILS: In vitro microsomal stability
- Type: in vitro ADME, rat
- MEASUREMENT_CONDITIONS: Sprague Dawley, liver microsomes, pH 7.4; rat liver microsome, 100 μM, 37 °C
For each record, write down the corresponding half-life at 100 μM.
One number for each entry, in h.

CCC(CC)O[C@@H]1C=C(C(=O)O)C[C@H](N=C(N2C(=O)c3ccccc3C2=O)N2C(=O)c3ccccc3C2=O)[C@H]1NC(C)=O    0.295

Next, consider the following molecule.
What the record says about CCC(CC)O[C@@H]1C=C(C(=O)O)C[C@H](N=C(N2C(=O)CC(C)(C)C2=O)N2C(=O)CC(C)(C)C2=O)[C@H]1NC(C)=O : half-life at 100 μM is 6.42

---

- PROCEDURE_DETAILS: Stability of OSC-GCDIs in phosphate buffers
- Format: physicochemical
- MEASUREMENT_CONDITIONS: sodium phosphate buffer, pH 8, phosphate buffer pH 8.0, 37 °C; read-out: T1/2
MEASURED_ENDPOINT: half-life at 100 μM (h)
Numbers only, in h.

Sample answers from the record:
CCC(CC)O[C@@H]1C=C(C(=O)O)C[C@H](N=C(N2C(=O)CC(C)(C)C2=O)N2C(=O)CC(C)(C)C2=O)[C@H]1NC(C)=O [OSC-GCDI(D)]    2.69
CCCCC1CC(=O)N(C(=N[C@H]2CC(C(=O)O)=C[C@@H](OC(CC)CC)[C@@H]2NC(C)=O)N2C(=O)CC(CCCC)C2=O)C1=O (stereo partly shown) [OSC-GCDI(B)]    2.62

Next, consider the following compound.
What the record says about CCC(CC)O[C@@H]1C=C(C(=O)O)C[C@H](N=C(N2C(=O)[C@H]3CCCC[C@H]3C2=O)N2C(=O)[C@H]3CCCC[C@H]3C2=O)[C@H]1NC(C)=O [OSC-GCDI(C)] : half-life at 100 μM is 0.447
